tested on: U-2932; test: growth inhibition by drug alone (1 - RLU/untreated control) (fraction); higher = stronger inhibition; conditions: 10 nM; time (day): 6; 177Lu-lilotomab satetraxetan 0 ug/ml
Counter-ions that a name gives are not always drawn.
quantity-kind: growth inhibition by drug alone

## Task Entry COc1ccc(-c2oc3cc(OC)ccc3c2C(=O)c2ccc(C#N)cc2)cc1 , system U-2932: what growth inhibition by drug alone was measured?
## Result -0.022

## Task And what about the compound CCN(CC)CCNC(=O)c1c(C)[nH]c(/C=C2\C(=O)Nc3ccc(F)cc32)c1C [Sunitinib Malate (Sutent)] ?
## Result -0.274

## Task And what about the compound CC(C)n1nc(-c2ccc3oc(N)nc3c2)c2c(N)ncnc21 ?
## Result 0.215

## Task And what about the compound CCC(=O)N1CCN(c2ccc(-n3c(=O)ccc4cnc5ccc(-c6cnc7ccccc7c6)cc5c43)cc2C(F)(F)F)CC1 ?
## Result -0.022

## Task And what about the compound Nc1cccc2c1C(=O)N(C1CCC(=O)NC1=O)C2=O (stereo unspecified) [Pomalidomide] ?
## Result -0.183

## Task And what about the compound CCC(CC)CC1(C(=O)Nc2ccccc2SC(=O)C(C)C)CCCCC1 ?
## Result 0.0506

## Task And what about the compound CC(C)Oc1cc(Nc2nc(N[C@@H](C)c3ccc(F)cn3)ncc2Cl)n[nH]1 ?
## Result -0.0699

## Task And what about the compound COc1cc2nccc(Oc3ccc(NC(=O)NC4CC4)c(Cl)c3)c2cc1C(N)=O ?
## Result 0.0583

## Task And what about the compound NC(=O)Nc1cc(-c2cccc(F)c2)sc1C(=O)N[C@H]1CCCNC1 ?
## Result -0.0587

## Task And what about the compound Oc1nc(-c2ccc(C(F)(F)F)cc2)nc2c1CSCC2 ?
## Result -0.0367

## Task And what about the compound CN(C)c1ccccc1CN1CCCN(Cc2ccccc2N(C)C)C1c1ccncc1 ?
## Result -0.0436

## Task And what about the compound O=C1C(Cl)=C(NCCN2CCOCC2)C(=O)c2ncccc21 ?
## Result 0.0178

## Task And what about the compound CCN(CC)C(=S)SSC(=S)N(CC)CC ?
## Result -0.236

## Task And what about the compound CN[C@@H](C)C(=O)N[C@H]1CN(C(=O)CC(C)C)CC[C@H]2CC[C@@H](C(=O)NC(c3ccccc3)c3ccccc3)N2C1=O ?
## Result -0.197

## Task And what about the compound O=C(O)C(=O)O.[NH-]C1CCCCC1[NH-].[Pt+2] (stereo unspecified) [Oxaliplatin (Eloxatin)] ?
## Result -0.0738

## Task And what about the compound COc1cc(OC2CCN(C)CC2)ccc1Nc1ncc2c(n1)n(C1CCCC1)c(=O)n2C ?
## Result -0.034

## Task And what about the compound CC(=O)O[C@H]1C(=O)[C@@]2(C)[C@H]([C@H](OC(=O)c3ccccc3)[C@]3(O)C[C@H](OC(=O)[C@H](O)[C@@H](NC(=O)c4ccccc4)c4ccccc4)C(C)=C1C3(C)C)[C@]1(OC(C)=O)CO[C@@H]1C[C@@H]2O ?
## Result 0.778

## Task And what about the compound CN(C)C/C=C/C(=O)Nc1cc2c(Nc3ccc(F)c(Cl)c3)ncnc2cc1O[C@H]1CCOC1 ?
## Result -0.039

## Task And what about the compound O=C(CCc1ccc(O)cc1)c1c(O)cc(O)cc1O [Phloretin (Dihydronaringenin)] ?
## Result -0.0447

## Task And what about the compound CN1CC[C@H](c2c(O)cc(O)c3c(=O)cc(-c4ccccc4Cl)oc23)[C@H](O)C1 [Flavopiridol hydrochloride] ?
## Result 0.00401

## Task And what about the compound COc1cc(N2CCC(N3CCN(C)CC3)CC2)ccc1Nc1ncc(Cl)c(Nc2ccccc2S(=O)(=O)C(C)C)n1 ?
## Result -0.173

## Task And what about the compound O=c1cc(N2CCOCC2)oc2c(-c3ccccc3)cccc12 ?
## Result -0.0318

## Task And what about the compound CC(C)(C)c1ccc(S(=O)(=O)/C=C/C#N)cc1 ?
## Result -0.0534

## Task And what about the compound C[C@]12CC[C@@H]3c4ccc(O)cc4CC[C@H]3[C@@H]1CCC2=O ?
## Result -0.00298

## Task And what about the compound Cn1cnc([N+](=O)[O-])c1Sc1ncnc2[nH]cnc12 ?
## Result 0.0444

## Task And what about the compound C=CCn1c(=O)c2cnc(Nc3ccc(N4CCN(C)CC4)cc3)nc2n1-c1cccc(C(C)(C)O)n1 ?
## Result -0.19
